Value source: PubChem BioAssay (NCI)

# Test system: KM12 colon
# assay-remarks: NCI-60 one-dose screen, 48 h
# conditions-used: 10 µM unless noted
About 83,000 compounds went through this panel and 20% of them were active in at least one assay; those are over-represented in the sample as a whole. Calls of active or inactive are those of the source. How the source made its calls: active means growth percent below 10; inactive means the rest.
Outcomes you can answer with include only these: YES = active, NO = inactive

>>> label_class("Cc1cn(C)cn1")
"NO"
>>> label_class("CN(C)c1ccc(/C=C2\\C=C(c3nc4ccccc4s3)OC2=O)cc1")
"NO"
>>> label_class("COc1ccc(N/N=C/c2cn(-c3ccc(C(=O)O)cc3)nc2-c2cc3ccccc3oc2=O)cc1")
"NO"
>>> label_class("COc1ccc2cc(C(=O)N3CCC([C@@H](C)C(=O)NCc4ccc5c(c4)OCO5)CC3)[nH]c2c1")
"NO"

Here is another compound to look at.
Could you please tell me the result logged for Cc1cccc(NC(=O)N/C(N)=N/c2nc3ccccc3s2)c1 in this assay?
NO
